subject.of.test: hCA XII (Homo sapiens, UniProt O43570)
Construct: recombinant, made by the authors as in earlier publications
Sequence (O43570 25-354 limits assumed): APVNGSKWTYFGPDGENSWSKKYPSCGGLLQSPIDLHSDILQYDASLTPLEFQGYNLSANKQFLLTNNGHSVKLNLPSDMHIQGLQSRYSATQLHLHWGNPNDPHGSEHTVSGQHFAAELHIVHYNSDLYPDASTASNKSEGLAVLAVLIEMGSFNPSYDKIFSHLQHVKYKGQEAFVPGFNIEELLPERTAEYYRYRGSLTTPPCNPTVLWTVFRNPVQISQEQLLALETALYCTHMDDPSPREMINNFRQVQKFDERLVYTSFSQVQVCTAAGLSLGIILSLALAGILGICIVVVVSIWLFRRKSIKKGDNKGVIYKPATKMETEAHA
method.description: stopped-flow CO2 hydration assay
Kindly supply the reported log10 of Ki values for the records listed here.
Values are log10 of Ki in nM.

The cases that follow already have their log10 of Ki on record.
smiles.string: NS(=O)(=O)c1cccc(NC(=O)NCCNCc2ccc(Br)cc2O)c1
log10 of Ki: 0.86

smiles.string: NS(=O)(=O)c1cccc(NC(=O)NCCNCc2ccc(-c3ccccc3)cc2)c1
log10 of Ki: 2.84

smiles.string: NS(=O)(=O)c1cccc(NC(=O)NCCNCc2ccccc2F)c1
log10 of Ki: 2.68

smiles.string: CN(C)c1ccc(CNCCNC(=O)Nc2ccc(S(N)(=O)=O)cc2)cc1
log10 of Ki: 2.42

smiles.string: NS(=O)(=O)c1ccc(NC(=O)NCCNCc2ccccc2)cc1
log10 of Ki: 1.74

// for each compound in input: emit log10 of Ki
1. CN(C)c1ccc(CNCCNC(=O)Nc2cccc(S(N)(=O)=O)c2)cc1
2. NS(=O)(=O)c1ccc(NC(=O)NCCNCc2ccc(O)cc2)cc1
3. NS(=O)(=O)c1ccc(NC(=O)NCCNCc2ccc(F)cc2)cc1
4. NS(=O)(=O)c1cccc(NC(=O)NCCNCc2ccccc2)c1
5. NS(=O)(=O)c1ccc(NC(=O)NCCNCc2ccc(Br)cc2O)cc1
6. NS(=O)(=O)c1cccc(NC(=O)NCCNCc2ccc(Cl)cc2)c1

1. 1.89
2. 1.88
3. 1.73
4. 2.89
5. 1.99
6. 2.36
